tested-target: human TMPRSS2 (Homo sapiens, UniProt O15393)
Sequence (O15393 106-492 limits assumed): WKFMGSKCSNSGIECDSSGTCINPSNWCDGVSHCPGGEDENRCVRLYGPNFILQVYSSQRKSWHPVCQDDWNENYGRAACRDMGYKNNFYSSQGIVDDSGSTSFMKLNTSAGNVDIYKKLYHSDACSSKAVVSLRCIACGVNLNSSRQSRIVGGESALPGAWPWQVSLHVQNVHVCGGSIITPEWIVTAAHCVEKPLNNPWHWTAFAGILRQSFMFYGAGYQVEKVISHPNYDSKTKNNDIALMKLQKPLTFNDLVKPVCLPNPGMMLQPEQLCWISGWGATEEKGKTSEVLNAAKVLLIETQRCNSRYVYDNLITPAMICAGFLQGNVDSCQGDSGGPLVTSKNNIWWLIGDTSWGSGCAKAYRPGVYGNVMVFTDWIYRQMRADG
assay-summary: BIACore binding assay of anti-TMPRSS2 antibodies
condition-description: Table 1, mouse mAbs, 25° C.

molecule	ka [M⁻¹ s⁻¹]
2020_12: mouse anti-human TMPRSS2 monoclonal antibody, IgG2c κ; VH SEQ ID NO: 25, VL SEQ ID NO: 26 (antibody, V domains shown, mouse IgG2c kappa constant regions; 2020_12 VH; 2020_12 VL) VH: QVQLQQPGAELAKPGASVKLSCKASGYTFTSYWMHWVKQRPGQGLEWIGLIPPNSGSSNYNEKFKSKATLTVDKSSRTAYMQLSSLTSEDSAVYYCARWDYGSSYGYFDVWGTGTTVTVSS VL: DIVLTQSPASLAVSLGQRATISCRASESVSTSGYSYMHWYQQKPGQPPKLLIYLASNLESGVPVRFSGSGSGTDFTLNIHPVEEEDAATYYCQHSRELPPTFGAGTKLELK	654000
